The measurements presented in this section are drawn from PubChem BioAssay (NCATS).

experimental-protocol: qHTS of pediatric cancer cell lines to identify multiple opportunities for drug repurposing: Confirmatory screen for BT-37 cells (AID 1347117);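 note: potency is the fitted concentration of half-maximal effect; viability measured after 48 h of compound exposure; nearly all actives have a fitted effect of over 55% in size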
measurement-conditions: BT-37 pediatric cancer cells, viability; series mostly up to 45.9 µM
Records with an inconclusive call do not appear. Calls of active or inactive are those of the source. Calls come from the whole dose curve; as a rule, active = well fitted cell-killing curve with a large enough effect; inconclusive = small, poorly fitted or top-dose-only effect; inactive = no such curve, though single readings can be large or run the other way.
What Potency was measured for each of the following?

I would be grateful if you could share the reported Potency for `CN1CCN(Cc2ccc(NC(=O)Nc3ccc(Oc4cc(NC(=O)C5CC5)ncn4)cc3)cc2C(F)(F)F)CC1` .
0.369 µM (active)

Next molecule up: `CNC(=O)c1c(F)cccc1Nc1nc(Nc2cc3c(cc2OC)CCN3C(=O)CN(C)C)nc2[nH]ccc12`
26.1 µM (active)

Ok, now `Cc1ccc(C(=O)Nc2cccc(C(F)(F)F)c2)cc1-c1ccc2nc(NCCN3CCOCC3)ncc2c1`
4.14 µM (active)

One more molecule: `COc1ccc(OC)c(-c2nnc3ccc(-c4ccc(OC)c(O[C@@H]5CCOC5)c4)nn23)c1`
7.37 µM (active)

---

Tested on: MCC-13
experimental-protocol: qHTS assay to identify novel small-molecules to repurpose for Merkel cell carcinoma treatment (AID 1296009); note: nearly all actives have a fitted effect of over 60% in size
measurement-conditions: MCC and control cell lines, CellTiter-Glo viability, 72 h; series mostly up to 46 µM
Records with an inconclusive call do not appear. The source made the active and inactive calls. The call rests on the fitted dose curve; in most records, active means well fitted inhibition curve with a large enough effect; inconclusive means small, poorly fitted or top-dose-only effect; inactive means flat fitted curve, though single readings scatter.
I would appreciate it if you answered using one of these outcomes: 1 (yes) (active), 0 (no) (inactive)

Hi, sorry to bother you, what did the test record for `C=CC(=O)N1CCC[C@@H](n2nc(-c3ccc(Oc4ccccc4)cc3)c3c(N)ncnc32)C1` ?
0 (no)

Another compound to check: CC1COC2(CCN(c3nc(=O)c4cc(C(F)(F)F)cc([N+](=O)[O-])c4s3)CC2)O1 (centres undefined)
0 (no)

Could you do the same for `CC(C)(C)c1cc(NC(=O)Nc2ccc(-c3cn4c(n3)sc3cc(OCCN5CCOCC5)ccc34)cc2)no1` , please?
0 (no)

Please do the same for CCOc1ccccc1OCCNC(C)Cc1ccc(OC)c(S(N)(=O)=O)c1 (centres undefined) as well.
0 (no)

Also CCOC(=O)C1=C(C)NC2=C(C(=O)CC(C)(C)C2)C1c1ccc(-c2ccccc2)cc1 (centres undefined) , if possible.
0 (no)

Now this one: `CN1CCC(CNc2ccc3ncc(-c4cccc(OC(F)(F)F)c4)n3n2)CC1`
0 (no)

Subsequent entry: `CCN1CCN(Cc2ccc(-c3cc4c(N[C@H](C)c5ccccc5)ncnc4[nH]3)cc2)CC1`
1 (yes)

Here is the next compound: `CCCCc1nc2cc(C=CC(=O)NO)ccc2n1CCN(CC)CC`
1 (yes)

Same question for `NC(=O)Nc1cc(-c2cccc(F)c2)sc1C(=O)N[C@H]1CCCNC1` please.
1 (yes)

---

Test system: MKL-1
experimental-protocol: qHTS assay to identify novel small-molecules to repurpose for Merkel cell carcinoma treatment (AID 1296009); note: nearly all actives have a fitted effect of over 60% in size
measurement-conditions: MCC and control cell lines, CellTiter-Glo viability, 72 h; series mostly up to 46 µM
Records with an inconclusive call do not appear. Calls of active or inactive are those of the source. The call rests on the fitted dose curve; in most records, active means well fitted inhibition curve with a large enough effect; inconclusive means small, poorly fitted or top-dose-only effect; inactive means flat fitted curve, though single readings scatter.
Select the matching outcome among 1 for active, 0 for inactive

Could you check what this test reported for `C[C@@H]1CN(CC(=O)Nc2ccc3c(c2)Cc2cccc(-c4cc(=O)cc(N5CCOCC5)o4)c2S3)C[C@H](C)O1` ?
0

Same thing, different compound: `Cn1c(=O)n(-c2ccc(C(C)(C)C#N)cc2)c2c3cc(-c4cnc5ccccc5c4)ccc3ncc21`
0

How about this compound: `Cc1cnc(-c2cnc(NCCNc3ccc(C#N)cn3)nc2-c2ccc(Cl)cc2Cl)[nH]1`
0

Then `Nc1nccc(Oc2ccc(NC(=O)c3c[nH]cc(-c4ccc(F)cc4)c3=O)cc2F)c1Cl` ?
1

Do the same for `CC(=O)SC[C@@H](C)C(=O)N1CCC[C@H]1C(=O)N[C@@H](Cc1ccccc1)C(=O)O` please
0

Further, for `Cc1c(NC(=O)OC[C@@H]2COCCN2)cn2ncnc(Nc3ccc4c(cnn4Cc4cccc(F)c4)c3)c12` ?
0

Lookup `COCCn1c2c([n+](Cc3cnccn3)c1C)C(=O)c1ccccc1C2=O`
1

Again, but for `CCCCc1nc2cc(C=CC(=O)NO)ccc2n1CCN(CC)CC`
1

Queued: `CCc1c2c(nc3ccc(O)cc13)-c1cc3c(c(=O)n1C2)COC(=O)[C@]3(O)CC`
1

What about this compound? `Cc1[nH]c2ccccc2c1CCNCc1ccc(C=CC(=O)NO)cc1`
1

Follow-up entry: O=c1[nH]c(=O)n(C2CCCO2)cc1F (configuration not stated)
0

Next: C[C@]12CC[C@H](O)CC1=CCC1C2CC[C@]2(C)C(n3cnc4ccccc43)=CCC12 (some centres not stated)
0

Same thing, different compound: `CC=CC1=C(C(=O)O)N2C(=O)[C@H](NC(=O)[C@H](N)c3ccc(O)cc3)[C@@H]2SC1`
0

Here is the next compound: O=C1CCC[C@@H]2[C@H]3CCC[N+]4([O-])CCC[C@@H](CN12)[C@@H]34 (some centres not stated)
0

Now the compound `O=C(O)CCCc1c[nH]c2ccccc12`
0

Subsequent entry: CC1COC2(CCN(c3nc(=O)c4cc(C(F)(F)F)cc([N+](=O)[O-])c4s3)CC2)O1 (configuration not stated)
0

And what about the compound `CNC(=O)c1cc(Oc2ccc(NC(=O)Nc3cc(C(C)(C)C)nn3-c3ccc4ncccc4c3)c(F)c2)ccn1` ?
0

Also `CCCCCN(CCC12CC3CC(CC(C3)C1)C2)C(=O)NCCCc1ccncc1` ?
0

Follow-up entry: `O=C(O)c1ccc2cc(-c3ccc(O)c(C45CC6CC(CC(C6)C4)C5)c3)ccc2c1`
1

Would you mind doing `CNc1nccc(-c2cccnc2Oc2cc(C(=O)Nc3cccc(C(F)(F)F)c3)ccc2C)n1` as well?
0

Query COc1ccc(CC2SC(=O)NC2=O)cc1C(=O)NCc1ccc(C(F)(F)F)cc1 (configuration not stated) next
0

Same question, `CC(=O)OCCN1C(=O)c2c(C)nc3ccc(S(=O)(=O)N4CCOCC4)cc3c2C1=O` this time
0

Please give the result for `CC(C)[C@H](C(=O)Nc1ccc(C(=O)NO)cc1)c1ccccc1` too.
1

Next up: `c1ccc2c(CCNc3ccc(Nc4ccncc4)cc3)c[nH]c2c1`
1

Field entry: `CS(=O)(=O)c1ccc(-c2cnc(N)c(C(=O)Nc3ccccc3)n2)cc1`
0

Next up: `C=C1C(=CC=C2CCC[C@]3(C)[C@@H]([C@H](C)C=C[C@H](C)C(C)C)CC[C@@H]23)C[C@@H](O)C[C@@H]1O`
1

Subsequent entry: `CC(=O)OCC(=O)[C@@]1(O)[C@H](C)C[C@H]2[C@@H]3C=C(C)C4=Cc5c(cnn5-c5ccccc5)C[C@]4(C)[C@@H]3[C@@H](O)C[C@@]21C`
0

Also COc1ccc(-c2cc3c(C)nc(N)nc3n(C3CCC(OCCO)CC3)c2=O)cn1 (configuration not stated) ?
1

Another compound: C=C1C(=CC=C2CCCC3(C)[C@@H]([C@H](C)C=CC=CC(O)(CC)CC)CC[C@@H]23)C[C@@H](O)C[C@@H]1O (some centres not stated)
0

Request: `Clc1cccc(-c2nnnn2Cc2cccnc2)c1Cl`
0

Another compound: `Cn1c(CNc2ccc(C(=N)N)cc2)nc2cc(C(=O)N(CCC(=O)O)c3ccccn3)ccc21`
0

# iterate: `Nc1nc(NCCNc2ncc(-n3ccnc3)c(-c3ccc(Cl)cc3Cl)n2)ccc1[N+](=O)[O-]`
0

Thanks! And `Cc1coc2c1C(=O)C(=O)c1c-2ccc2c1CCCC2(C)C` ?
0

Let us now turn to `CC1(C)CCC(c2ccc(Cl)cc2)=C(CN2CCN(c3ccc(C(=O)NS(=O)(=O)c4ccc(N[C@H](CCN5CCOCC5)CSc5ccccc5)c(S(=O)(=O)C(F)(F)F)c4)cc3)CC2)C1`
1

Now the compound `CCCNC(=O)Nc1ccc(Oc2ncnc3cc(OC)c(OC)cc23)cc1Cl`
0

What do we get for `Cc1ccc2nc(NC(=O)CSc3nc4c(c(=O)n3-c3ccccc3)SCC4)sc2c1` ?
0

Okay, and `CNC(=O)c1nn(C)c2c1C(C)(C)Cc1cnc(Nc3ccc(N4CCN(C)CC4)cc3)nc1-2` ?
1
